Test system: SNB-75 CNS
Test: NCI tumour cell line growth inhibition, 48 h
READOUT KIND: TGI (µM)
# number only, unit µM dropped from output

# input # query: TGI | item Cc1cc(C)c([O-])c(-[n+]2c(-c3ccccc3)cc(-c3ccccc3)cc2-c2ccccc2)c1 | system: SNB-75 CNS
# output 17.5

# input # query: TGI | item C=CC(=O)C#Cc1cnc(OC)nc1OC | system: SNB-75 CNS
# output 20.5

# input # query: TGI | item O=C(Cc1csc2[n+]1C(=O)/C(=C/c1ccc(Cl)cc1)S2)Nc1ccccc1 | system: SNB-75 CNS
# output 94.6
